test system: Plasmodium falciparum; assay: GSK_TCMDC: Inhibition of Plasmodium falciparum 3D7 in whole red blood cells, using parasite LDH activity as an index of growth. Test compounds present at 2uM; format: functional
Recorded Inhibition values for a group of compounds are listed next.
Respond with the bare value in %.

- compound: "CCCCC(=O)Nc1nonc1-c1ccc(OCC)c(OCC)c1"
  study.system: "Plasmodium falciparum"
  quantity.unit: "%"
  numeric.result: 100
- compound: "COc1cc(NC(=O)/C=C/c2cccc3ccoc23)ccc1OCCN(C(C)C)C(C)C.Cl"
  study.system: "Plasmodium falciparum"
  quantity.unit: "%"
  numeric.result: 90
- compound: "CC(CN1CCN(C)CC1)C(=O)Nc1cccc(-c2ccc(-c3nc4cc(C(F)(F)F)ccc4[nH]3)cc2)c1 (centres undefined)"
  study.system: "Plasmodium falciparum"
  quantity.unit: "%"
  numeric.result: 100
- compound: "Cc1cc(C)cc(N2C(N)=NC(N)=NC2(C)C)c1.Cl"
  study.system: "Plasmodium falciparum"
  quantity.unit: "%"
  numeric.result: 93

[ask] # input compound: O=C(O)C(F)(F)F.O=S(=O)(NCCN1CCCC1)c1ccc(-c2ccc(CNCc3ccc(F)cc3)cc2)s1 ; wanted: its Inhibition
[reply] 100

[ask] Recorded Inhibition for N#CN1CC[C@@H](NS(=O)(=O)Cc2ccc(Cl)c(Cl)c2)C1 , please?
[reply] 94

[ask] Form field: reported Inhibition of Nc1nccc2ccc(-c3cccc(OCc4ccccc4)c3)cc12.O=C(O)C(F)(F)F
[reply] 100

[ask] If you can, please state the reported Inhibition value of COC(=O)c1cccc(CNCc2ccc(-c3ccc(-c4nc5cc(F)ccc5[nH]4)s3)cc2)c1.O=C(O)C(F)(F)F .
[reply] 100

[ask] Please report the recorded Inhibition for CC(C)(C)c1ccc(OCC(=O)NC2CCN(c3ccnc4cc(Cl)ccc34)C2)cc1.O=C(O)C(F)(F)F (centres undefined) .
[reply] 98
